Each recorded value in this set is attributed to ChEMBL document CHEMBL5584338.

Target: Serine/threonine-protein kinase B-raf (Homo sapiens)
Sequence (P15056 whole entry): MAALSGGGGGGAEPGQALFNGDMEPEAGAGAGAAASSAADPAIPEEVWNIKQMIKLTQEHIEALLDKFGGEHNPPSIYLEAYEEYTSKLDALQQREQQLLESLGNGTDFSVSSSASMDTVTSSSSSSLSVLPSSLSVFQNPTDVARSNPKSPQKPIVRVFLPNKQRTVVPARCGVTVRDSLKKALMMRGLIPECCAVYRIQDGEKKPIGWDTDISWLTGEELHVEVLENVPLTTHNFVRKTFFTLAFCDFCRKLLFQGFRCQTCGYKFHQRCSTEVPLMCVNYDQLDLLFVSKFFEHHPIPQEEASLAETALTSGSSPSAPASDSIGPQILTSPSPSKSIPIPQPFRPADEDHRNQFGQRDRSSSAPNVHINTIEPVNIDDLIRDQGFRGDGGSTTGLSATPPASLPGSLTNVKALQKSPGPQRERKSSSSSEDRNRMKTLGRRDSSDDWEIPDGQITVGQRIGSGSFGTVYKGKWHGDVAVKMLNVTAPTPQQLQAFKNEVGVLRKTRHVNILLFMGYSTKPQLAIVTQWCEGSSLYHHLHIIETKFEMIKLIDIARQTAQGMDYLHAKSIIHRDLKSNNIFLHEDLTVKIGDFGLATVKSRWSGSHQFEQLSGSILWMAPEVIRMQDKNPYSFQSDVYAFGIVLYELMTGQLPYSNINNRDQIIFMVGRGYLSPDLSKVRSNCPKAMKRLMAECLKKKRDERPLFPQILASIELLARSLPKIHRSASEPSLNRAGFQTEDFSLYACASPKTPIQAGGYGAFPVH
Test: Inhibition of BRAF (unknown origin) assessed as remaining activity at 0.1 uM relative to control
measured property: Activity
Put your answer as a value accompanied by its unit after it.

> print(dat)
                         chemical.structure  measured.result
1  CNS(=O)(=O)Nc1cc(Cn2cnc3c(F)c(Nc4ccc(C5CC5)cc4F)c(C(=O)NOCCO)cc32)ccc1F              16%
2  CNS(=O)(=O)Nc1cccc(Cn2cnc3c(F)c(Nc4ccc(C)cc4F)c(C(=O)NOCCO)cc32)c1F               3%
3  CCNS(=O)(=O)Nc1cccc(Cn2cnc3c(F)c(Nc4ccc(Br)cc4F)c(C(=O)NOCCO)cc32)c1F               2%

Quick one: give me Activity for each item below, same order please.
1. CCC(=O)Nc1cccc(Cn2cnc3c(F)c(Nc4ccc(C5CC5)cc4F)c(C(=O)NOCCO)cc32)c1
2. CCNS(=O)(=O)Nc1cccc(Cn2cnc3c(F)c(Nc4ccc(C5CC5)cc4F)c(C(=O)NOCCO)cc32)c1F
3. O=C(NOCCO)c1cc2c(ncn2Cc2cccc(NC(=O)C3CCC3)c2)c(F)c1Nc1ccc(C2CC2)cc1F

Data returned:
75%
-3%
32%

###

Tested on: HCT-116
Assay: Antiproliferative activity against human HCT-116 cells harboring KRAS G13D mutant at 1 uM incubated for 72 hrs by CCK8 assay relative to control
Format: functional
measured property: inhibition at 1 µM (%)
One number for each entry, in %.

Some solved cases for reference:
> print(dat)
                                   molecule  test.system  measured.result
1  CC(C)NS(=O)(=O)Nc1cccc(Cn2cnc3c(F)c(Nc4ccc(C5CC5)cc4F)c(C(=O)NOCCO)cc32)c1      HCT-116             59.3
2  CCNS(=O)(=O)Nc1cccc(Cn2cnc3c(F)c(Nc4ccc(C5CC5)cc4F)c(C(=O)NOCCO)cc32)c1F      HCT-116             61.5
3  CNS(=O)(=O)Nc1cccc(Cn2cnc3c(F)c(Nc4ccc(Br)cc4F)c(C(=O)NOCCO)cc32)c1F      HCT-116             60.3
4  CNS(=O)(=O)Nc1cc(Cn2cnc3c(F)c(Nc4ccc(C5CC5)cc4F)c(C(=O)NOCCO)cc32)ccc1F      HCT-116             35.2
5  O=C(NOCCO)c1cc2c(ncn2Cc2cccc(NC(=O)C3CCC3)c2)c(F)c1Nc1ccc(C2CC2)cc1F      HCT-116             25.1
6  CCNS(=O)(=O)Nc1cccc(Cn2cnc3c(F)c(Nc4ccc(C)cc4F)c(C(=O)NOCCO)cc32)c1F      HCT-116             57.6
7  CCNS(=O)(=O)Nc1cccc(Cn2cnc3c(F)c(Nc4ccc(Br)cc4F)c(C(=O)NOCCO)cc32)c1F      HCT-116             65.1
8  CNS(=O)(=O)Nc1nccc(Cc2c(C)c3ccc(Oc4ncccn4)cc3oc2=O)c1F [AVUTOMETINIB]      HCT-116             56.1
9  CCNS(=O)(=O)Nc1cccc(Cn2cnc3c(F)c(Nc4ccc(C5CCC5)cc4F)c(C(=O)NOCCO)cc32)c1F      HCT-116             56.2

So for CC(C)CNS(=O)(=O)Nc1cccc(Cn2cnc3c(F)c(Nc4ccc(C5CC5)cc4F)c(C(=O)NOCCO)cc32)c1 , the logged inhibition at 1 µM turned out to be 60.2

###

Test system: HCT-116
Assay: Antiproliferative activity against human HCT-116 cells harboring KRAS G13D mutant at 1 uM incubated for 72 hrs by CCK8 assay relative to control
Assay type: functional
measured property: inhibition at 1 µM (%)
Answers are plain numbers, in %.

These recorded examples may help you get a feel for the data.
> print(dat)
                                   compound  measured.result
1  CNS(=O)(=O)Nc1cccc(Cn2cnc3c(F)c(F)c(C(=O)NOCCO)cc32)c1F             14.8
2  CNS(=O)(=O)Nc1cc(F)cc(Cn2cnc3c(F)c(Nc4ccc(C5CC5)cc4F)c(C(=O)NOCCO)cc32)c1             57.4
3  CCNS(=O)(=O)Nc1cccc(Cn2cnc3c(F)c(Nc4ccc(C5CCCC5)cc4F)c(C(=O)NOCCO)cc32)c1F             26.9
4  CNS(=O)(=O)Nc1ccc(F)c(Cn2cnc3c(F)c(Nc4ccc(C5CC5)cc4F)c(C(=O)NOCCO)cc32)c1               12
5  CNS(=O)(=O)N1CCC(Cn2cnc3c(F)c(Nc4ccc(C5CC5)cc4F)c(C(=O)NOCCO)cc32)C1 (stereo not drawn)             2.43

For each entry beneath this line, provide reported inhibition at 1 µM.
1. CNS(=O)(=O)Nc1cccc(Cn2cnc3c(F)c(Nc4ccc(C5CC5)cc4F)c(C(=O)NOCCO)cc32)c1F
2. CCNS(=O)(=O)Nc1ccc(F)c(Cn2cnc3c(F)c(Nc4ccc(C5CC5)cc4F)c(C(=O)NOCCO)cc32)c1
3. CCNS(=O)(=O)Nc1cccc(Cn2cnc3c(F)c(Nc4ccc(I)cc4F)c(C(=O)NOCCO)cc32)c1Cl

Data returned:
1: 61.2; 2: 17.5; 3: 61.4

###

System: MIA PaCa-2
Assay: Antiproliferative activity against human MIA PaCa-2 cells harboring KRAS G12C mutant incubated for 72 hrs by CCK8 assay
Assay type: functional, cell-based
Details: MIA PaCa-2, 72 h
Would you mind telling me the reported pIC50 of each entry?
Numbers only, as −log10 of the molar value.

> print(dat)
                                   compound  measured.result
1  CCNS(=O)(=O)Nc1cccc(Cn2cnc3c(F)c(Nc4ccc(C5CC5)cc4F)c(C(=O)NOCCO)cc32)c1             7.64
2  CCNS(=O)(=O)Nc1cccc(Cn2cnc3c(F)c(Nc4ccc(I)cc4F)c(C(=O)NOCCO)cc32)c1Cl             6.90
3  CNS(=O)(=O)Nc1nccc(Cc2c(C)c3ccc(Oc4ncccn4)cc3oc2=O)c1F [AVUTOMETINIB]             6.94

# per-item lookup of pIC50; items listed below
1. CNS(=O)(=O)Nc1cccc(Cn2cnc3c(F)c(Nc4ccc(C5CC5)cc4F)c(C(=O)NOCCO)cc32)c1Cl
2. CCNS(=O)(=O)Nc1cccc(Cn2cnc3c(F)c(Nc4ccc(Br)cc4F)c(C(=O)NOCCO)cc32)c1F
3. CNS(=O)(=O)Nc1cc(F)cc(Cn2cnc3c(F)c(Nc4ccc(C5CC5)cc4F)c(C(=O)NOCCO)cc32)c1
4. CCNS(=O)(=O)Nc1cccc(Cn2cnc3c(F)c(Nc4ccc(C5CCC5)cc4F)c(C(=O)NOCCO)cc32)c1F
5. CNS(=O)(=O)Nc1cccc(Cn2cnc3c(F)c(Nc4ccc(C)cc4F)c(C(=O)NOCCO)cc32)c1F
6. CNS(=O)(=O)Nc1cc(Cn2cnc3c(F)c(Nc4ccc(C5CC5)cc4F)c(C(=O)NOCCO)cc32)ccc1F

Data returned:
[6.77, 6.44, 7.33, 6.03, 6.06, 6.21]

###

Test system: HCT-116
Assay: Antiproliferative activity against human HCT-116 cells harboring KRAS G13D mutant incubated for 72 hrs by CCK8 assay
Type: functional, cell-based
Conditions: HCT-116, 72 h
Simple rule here: IC50 less than 200 nM is Satisfied, otherwise Not satisfied.

As a guide, the following entries are already answered.
> print(dat)
                                   molecule          group
1  CNS(=O)(=O)Nc1cccc(Cn2cnc3c(F)c(Nc4ccc(C5CC5)cc4F)c(C(=O)NOCCO)cc32)c1F      Satisfied
2  CC(C)CNS(=O)(=O)Nc1cccc(Cn2cnc3c(F)c(Nc4ccc(C5CC5)cc4F)c(C(=O)NOCCO)cc32)c1  Not satisfied
3  Cn1cnc2c(F)c(Nc3ccc(Br)cc3F)c(C(=O)NOCCO)cc21 [BINIMETINIB]  Not satisfied
4  CCNS(=O)(=O)Nc1cccc(Cn2cnc3c(F)c(Nc4ccc(I)cc4F)c(C(=O)NOCCO)cc32)c1Cl  Not satisfied
5  CNS(=O)(=O)Nc1cccc(Cn2cnc3c(F)c(Nc4ccc(I)cc4F)c(C(=O)NOCCO)cc32)c1F      Satisfied

Data request: Given CNS(=O)(=O)Nc1cccc(Cn2cnc3c(F)c(Nc4ccc(C5CCC5)cc4F)c(C(=O)NOCCO)cc32)c1F , is recorded IC50 strictly lower than 200 nM?
Data returned: Not satisfied

Data request: Find out if reported IC50 for CNS(=O)(=O)Nc1cccc(Cn2cnc3c(F)c(Nc4ccc(C)cc4F)c(C(=O)NOCCO)cc32)c1F is less than 200 nM
Data returned: Not satisfied

Data request: Lab log: compare recorded IC50 with 200 nM; is it strictly lower for CC(C)NS(=O)(=O)Nc1cccc(Cn2cnc3c(F)c(Nc4ccc(C5CC5)cc4F)c(C(=O)NOCCO)cc32)c1 ?
Data returned: Satisfied

Data request: Consider CNS(=O)(=O)Nc1cccc(Cn2cnc3c(F)c(Nc4ccc(Br)cc4F)c(C(=O)NOCCO)cc32)c1F . Does its IC50 lie strictly below 200 nM?
Data returned: Satisfied
